Origin of measurements: ChEMBL document CHEMBL1201862

# Tested on: SNB-75
# assay-summary: NCI tumour cell line growth inhibition, 48 h
Activity calls are given as the source filed them. Cut-off read from the data, not from the text of the source: active = GI50 up to about 1.1 µM and inactive = higher.
Classes to choose from: Y for active, N for inactive

Answered cases to consult:
COC(=O)C(C(=O)C(=O)Nc1nc2ccc([N+](=O)[O-])cc2s1)c1nc2ccc(Cl)cc2nc1O (stereo unspecified) = N
Cc1oc2c(Cl)cc(O)c(Cl)c2c2cccc1-2 = N
Cc1ccc(C(=O)C(C)N)cc1 (stereo unspecified) = N
COc1cc(C2(C)SCCCS2)cc(OC)c1OC = N
O=c1c2c(oc3ccccc13)-c1ccccc1OC2 = N
COC1(OC)CC(CO)(COc2cc(Cl)nc(N)n2)C1 = N

Turning now to a further record.
Ask: For CC1COS(=O)O1 (stereo unspecified) , which call appears in the assay record?
Result: N

----------
# Tested on: XF498
# assay-summary: NCI tumour cell line growth inhibition, 48 h
The source made the active and inactive calls. No stated cut-off is given here; in the data, active = GI50 up to about 1.1 µM and inactive = higher.
Your reply should match one of these outcome classes. yes for active, no for inactive

Check out these entries, answers already filled in.
COC(=O)C(C(=O)C(=O)Nc1ccc(C)cc1C)c1nc2ccc([N+](=O)[O-])cc2nc1O (stereo unspecified) = no
O=C(NC1CCCCC1)NC12CC3CC(CC(F)(C3)C1)C2 = no
CC1COS(=O)O1 (stereo unspecified) = no
N/N=C(\Cc1ccccc1)NN=C(N)N = no

Ask: Query: recorded result category for "ClC(/N=N/c1ccccc1)=N/Nc1ccccc1" in this test
Result: no

Ask: Outcome logged for COC(=O)C1c2cc3c(c(O)c2C(O)CC1(C)O)C(=O)c1c(O)cc2c(c1C3=O)OC1OC2(C)C(O)C(N(C)C)C1O (stereo unspecified) in this assay:
Result: no

Ask: Status in this test for CN1CC[C@]2(C)c3cc(O)ccc3CC3CCCC1C32C (stereo partly specified) ?
Result: no

Ask: I would be grateful if you could indicate the recorded call for "COc1cc(=O)oc(/C=C/C=O)c1C" .
Result: no

Ask: What classification did c1ccc(C2N3CCCCC3[C@@H]3c4[nH]c5ccccc5c4CCN23)cc1 (stereo partly specified) end up with in this test?
Result: no

Ask: For this compound, state the assay outcome: "CCCCCCCCCCCCNC(=S)OC"
Result: no

Ask: Write down the call the test reported for this compound. Item: "Cc1c2c(cc3c1[nH]c1ccccc13)C(c1ccc(Cl)cc1)=NCC2"
Result: yes

----------
For each record, write down the corresponding GI50.
# System: RPMI-8226
# assay-summary: NCI tumour cell line growth inhibition, 48 h
Activity calls are given as the source filed them. Cut-off read from the data, not from the text of the source: active = GI50 up to about 1.1 µM and inactive = higher.

Some solved cases for reference:
O=c1/c(=C\c2ccccc2)sc2n1C(c1ccccc1)C1(O)CCCCC1N=2 (configuration not stated) = 59.8 µM (inactive)
CC(=O)OCC1OC(n2c(=O)[nH]c(=O)c3nn[nH]c32)C(OC(C)=O)C(OC(C)=O)C1OC(C)=O (configuration not stated) = > 100 µM (inactive)
Cc1ccc(C2(O)c3ccccc3C(=O)N(C)C2(O)c2ccc(C)cc2)cc1 (configuration not stated) = > 100 µM (inactive)
CC(=N/NC(=S)N1CCCCC1)/C(=N\NC(=S)N1CCCCC1)c1ccccc1 = 3.36 µM (inactive)
CCCNC(=S)N/N=C/c1cccc(C)n1 = 24.3 µM (inactive)

// input: 4 compounds below; output: GI50 for each
1. Cc1ccc2ccc(=O)oc2c1
2. Cc1ccc(C(=O)/C=C(\O)C(=O)NN=C(c2ccccc2)c2ccccc2)cc1
3. CCOC(=O)c1cn2c(n1)sc1cc(Cl)cc(Cl)c12
4. COC(=O)/C=C\COCC1C2CCC(=O)C21 (configuration not stated)

Result:
["> 100 µM (inactive)", "26.6 µM (inactive)", "> 100 µM (inactive)", "11 µM (inactive)"]

Provide reported GI50 for each item, in the same order as listed.
1. O=c1ccc2ccc(OP(=O)(O)O)cc2o1
2. C[C@]12CC[C@H](O)C=C1CC[C@@H]1[C@@H]2CC[C@]2(C)C(=N/O)/C(=C/c3ccncc3)C[C@@H]12
3. Cc1ccc(S(=O)(=O)N(CC(O)c2ccccc2)c2ccccc2F)cc1 (configuration not stated)
4. C=C(CCOC)CCC1CCCCC/C1=N\N(C)C (configuration not stated)
5. Cc1csc(CCC(N)C(=O)O)n1 (configuration not stated)

Result:
1: > 100 µM (inactive); 2: 3.78 µM (inactive); 3: 17 µM (inactive); 4: > 100 µM (inactive); 5: > 100 µM (inactive)

// each compound listed below needs its GI50
1. O=c1oc(-c2ccccc2)cn1-c1ccccc1
2. COC(=O)c1cc2c3c(ccc2[nH]1)N(C(=O)c1cc2c4c(ccc2[nH]1)N(C(=O)c1cc2c5c(ccc2[nH]1)N(C(N)=O)CC5)CC4)CC3
3. N#CCCN(CCCCN(CCC#N)C(=O)Nc1ccccc1)C(=O)Nc1ccccc1

Result:
1: > 100 µM (inactive); 2: 7.89 µM (inactive); 3: > 100 µM (inactive)
